biological target: DLL4.v2 (N-EGF5) (human, UniProt Q9NR61 27-400, N257P | T271L | F280Y | S301R | Q305P); assay: SPR
Sequence (Q9NR61 27-400 N257P/T271L/F280Y/S301R/Q305P): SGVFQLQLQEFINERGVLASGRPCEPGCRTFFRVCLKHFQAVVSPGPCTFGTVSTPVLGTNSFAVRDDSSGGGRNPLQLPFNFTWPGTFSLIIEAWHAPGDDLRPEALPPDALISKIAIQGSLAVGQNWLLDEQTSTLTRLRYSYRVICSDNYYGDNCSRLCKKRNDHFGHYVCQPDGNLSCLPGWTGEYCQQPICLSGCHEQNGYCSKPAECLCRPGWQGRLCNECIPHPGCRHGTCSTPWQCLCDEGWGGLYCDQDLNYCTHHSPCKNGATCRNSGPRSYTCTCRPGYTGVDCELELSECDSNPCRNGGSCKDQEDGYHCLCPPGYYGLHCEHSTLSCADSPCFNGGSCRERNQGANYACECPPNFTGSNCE

{"Binder": "human Notch3 (EGF5-12, residues 197-505), biotinylated (domain or fragment, UniProt Q9UM47 197-505, looked up, biotin on the C-terminal BAP-tag (BirA)) PAVPCAPSPCRNGGTCRQSGDLTYDCACLPGFEGQNCEVNVDDCPGHRCLNGGTCVDGVNTYNCQCPPEWTGQFCTEDVDECQLQPNACHNGGTCFNTLGGHSCVCVNGWTGESCSQNIDDCATAVCFHGATCHDRVASFYCACPMGKTGLLCHLDDACVSNPCHEDAICDTNPVNGRAICTCPPGFTGGACDQDVDECSIGANPCEHLGRCVNTQGSFLCQCGRGYTGPRCETDVNECLSGPCRNQATCLDRIGQFTCICMAGFTGTYCEVDIDECQSSPCVNGGVCKDRVNGFSCTCPSGFSGSTCQ", "binding result": "binds"}
{"Binder": "mouse Notch1 (EGF6-13, residues 221-526), biotinylated (domain or fragment, UniProt Q01705 221-526, looked up, biotin on the C-terminal BAP-tag (BirA)) PCSPSPCQNGGTCRPTGDTTHECACLPGFAGQNCEENVDDCPGNNCKNGGACVDGVNTYNCRCPPEWTGQYCTEDVDECQLMPNACQNGGTCHNTHGGYNCVCVNGWTGEDCSENIDDCASAACFQGATCHDRVASFYCECPHGRTGLLCHLNDACISNPCNEGSNCDTNPVNGKAICTCPSGYTGPACSQDVDECALGANPCEHAGKCLNTLGSFECQCLQGYTGPRCEIDVNECISNPCQNDATCLDQIGEFQCICMPGYEGVYCEINTDECASSPCLHNGHCMDKINEFQCQCPKGFNGHLCQ", "binding result": "binds"}
{"Binder": "human Notch2 (EGF6-13, residues 221-530), biotinylated (domain or fragment, UniProt Q04721 221-530, looked up, biotin on the C-terminal BAP-tag (BirA)) LYVPCAPSPCVNGGTCRQTGDFTFECNCLPGFEGSTCERNIDDCPNHRCQNGGVCVDGVNTYNCRCPPQWTGQFCTEDVDECLLQPNACQNGGTCANRNGGYGCVCVNGWSGDDCSENIDDCAFASCTPGSTCIDRVASFSCMCPEGKAGLLCHLDDACISNPCHKGALCDTNPLNGQYICTCPQGYKGADCTEDVDECAMANSNPCEHAGKCVNTDGAFHCECLKGYAGPRCEMDINECHSDPCQNDATCLDKIGGFTCLCMPGFKGVHCELEINECQSNPCVNNGQCVDKVNRFQCLCPPGFTGPVCQ", "binding result": "binds"}

This collection of values is drawn from paper doi:10.1101/2022.03.07.483330.
